Origin of measurements: ChEMBL document CHEMBL1123478

- System: P388
- assay.text: Compound was tested for antitumor activity against P388 lymphocytic leukemia at the dose 240 mg/kg
- Assay type: functional, Mus musculus
observation.type: T/C

>>> print(df.to_string())
                                   compound  reading
0  CC(C)NC(=O)OCc1cn(C)c(-c2ccc(Cl)c(Cl)c2)c1COC(=O)NC(C)C     160%
1  CC(C)NC(=O)OCc1cn2c(c1COC(=O)NC(C)C)-c1cc(Cl)c(Cl)cc1CC2     137%
2  CC(C)NC(=O)OCC1=C(COC(=O)NC(C)C)C(c2ccc(Cl)c(Cl)c2)N(C)C1 (centres undefined)     119%
3  CC(C)NC(=O)OCC1=C(COC(=O)NC(C)C)C(c2ccc(F)cc2)N(C)C1 (centres undefined)     137%

====

# reported log10(K'); entries follow
- assay.text: Rate constants were calculated for the compound by linear regression analysis
observation.type: log10(K') (log10 of the value in abs/time)

                                 cpd_smiles  reading
0  CC(C)NC(=O)OCc1cn2c(c1COC(=O)NC(C)C)-c1cc(Cl)c(Cl)cc1CC2    -2.81
1  Cc1c(COC(=O)NC(C)C)c(COC(=O)NC(C)C)c(-c2ccccc2)n1C     0.23
2  CC(C)NC(=O)OCc1cn(C)c(-c2ccccc2)c1COC(=O)NC(C)C    -1.03
3  COc1ccc(-c2c(COC(=O)NC(C)C)c(COC(=O)NC(C)C)cn2C)cc1    -0.64
4  COc1ccc2c(c1)CCn1cc(COC(=O)NC(C)C)c(COC(=O)NC(C)C)c1-2    -0.35
5  CC(C)NC(=O)OCc1cn(C)c(-c2ccc(Cl)c(Cl)c2)c1COC(=O)NC(C)C    -2.22
6  CC(C)NC(=O)OCc1cn(C)c(-c2ccc(F)cc2)c1COC(=O)NC(C)C    -1.29

====

- System: P388
- assay.text: Compound was tested for antitumor activity against P388 lymphocytic leukemia at the dose 50 mg/kg
- Assay type: functional, Mus musculus
observation.type: T/C (%)

                                   molecule  observation_type  uom  reading
0  CNC(=O)OCC1=C(COC(=O)NC)[C@@H](c2ccccc2)N(C)[C@H]1c1ccccc1               T/C    %      154
1  CC(C)NC(=O)OCC1=C(COC(=O)NC(C)C)[C@@H](c2ccccc2)N(C)[C@H]1c1ccccc1               T/C    %      145
2  CC(C)NC(=O)OCC1=C(COC(=O)NC(C)C)C(C)(C)N(C)C1c1ccccc1 (centres undefined)               T/C    %      108
3  CC(C)NC(=O)OCC1=C(COC(=O)NC(C)C)C(c2ccccc2)N(C)C1 (centres undefined)               T/C    %      145

====

- Test system: Mus musculus
- assay.text: Body weight difference the relation of the test animal to control animal weight was calculated at the 60 mg/kg doses
- Format: functional
Classification field: enter true (1) for BDW values not below -0.8 g, false (0) for values below it.

>>> df
                                   compound  target_or_test_system  label_value
0  CC(C)NC(=O)OCc1cn(C)c(-c2ccc(F)cc2)c1COC(=O)NC(C)C           Mus musculus    false (0)
1  CC(C)NC(=O)OCC1=C(COC(=O)NC(C)C)C(c2ccc(Cl)c(Cl)c2)N(C)C1 (configuration not stated)           Mus musculus    false (0)
2  CC(C)NC(=O)OCC1=C(COC(=O)NC(C)C)C(c2ccc(F)cc2)N(C)C1 (configuration not stated)           Mus musculus     true (1)
3  CC(C)NC(=O)OCc1cn(C)c(-c2ccccc2)c1COC(=O)NC(C)C           Mus musculus    false (0)
4  CC(C)NC(=O)OCc1cn2c(c1COC(=O)NC(C)C)-c1cc(Cl)c(Cl)cc1CC2           Mus musculus     true (1)
